Target: T1, hPRLR.mFc (soluble dimeric human PRLR) (Homo sapiens, UniProt P16471)
T1 construct: dimeric (hPRLR.mFc)
T1 sequence (P16471 with tags, fused parts or gaps): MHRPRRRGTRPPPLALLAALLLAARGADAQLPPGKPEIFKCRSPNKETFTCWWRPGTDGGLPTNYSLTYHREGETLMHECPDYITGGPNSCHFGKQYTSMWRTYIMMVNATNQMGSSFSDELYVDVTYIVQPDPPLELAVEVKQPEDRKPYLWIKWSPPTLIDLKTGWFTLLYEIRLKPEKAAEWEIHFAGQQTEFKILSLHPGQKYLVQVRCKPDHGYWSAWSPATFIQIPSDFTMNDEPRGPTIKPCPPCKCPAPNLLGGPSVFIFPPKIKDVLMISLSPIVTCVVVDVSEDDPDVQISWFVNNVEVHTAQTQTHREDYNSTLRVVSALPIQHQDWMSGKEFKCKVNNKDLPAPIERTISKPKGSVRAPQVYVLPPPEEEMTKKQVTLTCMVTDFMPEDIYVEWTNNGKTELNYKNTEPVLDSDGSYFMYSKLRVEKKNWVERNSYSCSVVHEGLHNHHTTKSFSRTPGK
Assay: Surface plasmon resonance (Biacore T200), mAb-capture format
Type: binding
Details: 37° C., antibody-capture format, analyte hPRLR.mFc
metric: T½ (min)
Give bare numbers, in min.

{"molecule": "H1H6795P: anti-PRLR antibody, human IgG1 Fc; HCVR/LCVR SEQ ID NOs 162/170 (antibody, V domains shown, human IgG1 Fc) VH: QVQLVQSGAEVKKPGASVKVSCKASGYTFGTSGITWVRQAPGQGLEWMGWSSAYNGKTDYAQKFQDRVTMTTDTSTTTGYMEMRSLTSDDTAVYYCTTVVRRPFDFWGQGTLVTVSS VL: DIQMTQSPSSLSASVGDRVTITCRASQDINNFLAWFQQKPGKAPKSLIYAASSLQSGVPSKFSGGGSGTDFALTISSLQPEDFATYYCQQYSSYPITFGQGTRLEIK", "T½, min": 149}

Alright, here's another molecule for you.
Tell me the measured T½ of H1H6975N: human IgG1 Fc form of H2M6975N; anti-PRLR; HCVR/LCVR SEQ ID NOs 370/378 (antibody, V domains shown, human IgG1 Fc) VH: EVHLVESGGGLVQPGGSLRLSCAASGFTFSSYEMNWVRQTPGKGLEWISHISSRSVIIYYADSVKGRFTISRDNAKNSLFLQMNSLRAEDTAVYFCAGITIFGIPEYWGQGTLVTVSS VL: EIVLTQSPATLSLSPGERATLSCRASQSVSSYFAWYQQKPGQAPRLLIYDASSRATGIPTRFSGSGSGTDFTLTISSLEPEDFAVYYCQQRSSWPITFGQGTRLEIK , please.
163.0

Source of measurements: patent US9688764B2
